Tested on: Candida albicans
assay-summary: Antifungal activity against Candida albicans ATCC 24433 by disk diffusion method
Format: functional
Decide by diameter of the inhibition zone (DIZ): equal to or exceeding 20 mm means YES, less means NO.

The examples below pair each entry with its known result.
[[record]]
structure_string = "O=c1[nH]nc2c3c(c(-c4ccccc4)nc4ccccc43)c(-c3ccccc3)c(-c3ccccc3)n12"
cat = "NO"

[[record]]
structure_string = "S=c1[nH]nc2c3c(c(-c4ccc(Cl)cc4)nc4ccccc43)c(-c3ccccc3)c(-c3ccccc3)n12"
cat = "NO"

[[record]]
structure_string = "S=c1[nH]nc2c3c(c(-c4ccccc4)nc4ccccc43)c(-c3ccccc3)c(-c3ccccc3)n12"
cat = "NO"

[[record]]
structure_string = "OC(Cn1cncn1)(Cn1cncn1)c1ccc(F)cc1F"
cat = "YES"

[[record]]
structure_string = "Cc1ccc(-c2nc3ccccc3c3c2c(-c2ccccc2)c(-c2ccccc2)n2c(=O)[nH]nc32)cc1"
cat = "NO"

[[record]]
structure_string = "O=C(O)c1cc(-c2ccccc2)[n+](C/C(=N/N=C2/N=C(c3ccccc3)CS2)c2ccccc2)c2ccccc12.[I-]"
cat = "NO"

[[record]]
structure_string = "Cc1ccc(-c2cc(C(=O)O)c3ccccc3[n+]2C/C(=N/N=C2/N=C(c3ccc(N)cc3)CS2)c2ccccc2)cc1.[I-]"
cat = "YES"


--- query ---
Q: Answer whether diameter of the inhibition zone (DIZ) of Nc1ccc(C2=N/C(=N/N=C(/C[n+]3c(-c4ccccc4)cc(C(=O)O)c4ccccc43)c3ccccc3)SC2)cc1.[I-] is greater than or equal to 20 mm.
Ans: YES

----------
Test system: Pseudomonas aeruginosa
assay-summary: Antibacterial activity against Pseudomonas aeruginosa ATCC 25615 by disc diffusion method
Assay type: functional
Classification field: YES = diameter of the inhibition zone (DIZ) at or over 8 mm; NO = diameter of the inhibition zone (DIZ) under 8 mm.

Reference set, count: 5
[[record]]
structure_string = "Nc1ccc(C2=N/C(=N/N=C(/C[n+]3c(-c4ccccc4)cc(C(=O)O)c4ccccc43)c3ccccc3)SC2)cc1.[I-]"
cat = "YES"

[[record]]
structure_string = "Cc1ccc(-c2nc3ccccc3c3c2c(-c2ccccc2)c(-c2ccccc2)n2c(=O)[nH]nc32)cc1"
cat = "YES"

[[record]]
structure_string = "O=C(O)c1cc(-c2ccccc2)[n+](C/C(=N/N=C2/N=C(c3ccccc3)CS2)c2ccccc2)c2ccccc12.[I-]"
cat = "YES"

[[record]]
structure_string = "Cc1ccc(-c2nc3ccccc3c3c2c(-c2ccccc2)c(-c2ccccc2)n2c(=S)[nH]nc32)cc1"
cat = "NO"

[[record]]
structure_string = "O=C(O)c1cc(-c2ccc(Cl)cc2)[n+](C/C(=N/N=C2/N=C(c3ccccc3)CS2)c2ccccc2)c2ccccc12.[I-]"
cat = "NO"


Q: Item O=c1[nH]nc2c3c(c(-c4ccc(Cl)cc4)nc4ccccc43)c(-c3ccccc3)c(-c3ccccc3)n12 with diameter of the inhibition zone (DIZ) of 8 mm or above?
Ans: NO

Q: Kindly determine if diameter of the inhibition zone (DIZ) recorded for O=c1[nH]nc2c3c(c(-c4ccccc4)nc4ccccc43)c(-c3ccccc3)c(-c3ccccc3)n12 is above or exactly 8 mm.
Ans: YES

Q: Answer whether diameter of the inhibition zone (DIZ) of S=c1[nH]nc2c3c(c(-c4ccc(Cl)cc4)nc4ccccc43)c(-c3ccccc3)c(-c3ccccc3)n12 is greater than or equal to 8 mm.
Ans: YES

Q: Identify whether the reported diameter of the inhibition zone (DIZ) of the following molecule is 8 mm or greater: Cc1ccc(-c2cc(C(=O)O)c3ccccc3[n+]2C/C(=N/N=C2/N=C(c3ccc(N)cc3)CS2)c2ccccc2)cc1.[I-]
Ans: NO

Data origin: ChEMBL document CHEMBL3045434
